tested on: surinam grass; experiment: Test B pre/postemergence surinam grass; assay type: in vivo, Brachiaria decumbens; settings: Rate 250 g/ha; Postemergence
ASSAY METRIC: Plant response rating (0 to 10; 0 is no effect, 10 is complete control), B. signalgrass
Write no unit; give the number alone.

Ask | Which Plant response rating (0 to 10; 0 is no effect, 10 is complete control), B. signalgrass reading was recorded for the molecule CCCCc1ccc(N(C(=O)n2oc(=O)n(-c3ccccc3C)c2=O)C(C)C)cc1 ?
Reply | 0

Ask | // same read-out, input: CC(C)N(C(=O)n1oc(=O)n(CC=Cc2ccccc2)c1=O)c1ccc(F)cc1
Reply | 0

Ask | Do the same for C=CCn1c(=O)on(C(=O)N(c2ccc(F)cc2)C2CCCCCC2)c1=O please
Reply | 0

Ask | Another molecule to check: COC(=O)CCCn1c(=O)on(C(=O)N(c2ccc(F)cc2)C(C)C)c1=O
Reply | 0

Ask | Next record, please: CC(C)N(C(=O)n1oc(=O)n(-c2cccnc2)c1=O)c1ccccc1
Reply | 0

Ask | For CCOC(=O)C=CCn1c(=O)on(C(=O)N(c2ccc(F)cc2)C(C)C)c1=O then?
Reply | 0

Ask | Now consider CON=C(Cn1c(=O)on(C(=O)N(c2ccc(F)cc2)C(C)C)c1=O)C(F)(F)F .
Reply | 0
